# Test system: astro (control astrocytes)
# test_name: Drug repurposing screens with cells derived from glioblastoma tumor samples (AID 1345199); further: nearly all actives have a fitted effect of over 40% in size
# test_settings: viability, ATP luminescence, 48 h; series mostly up to 45.9 µM
Records with an inconclusive call do not appear. Activity calls are given as the source filed them. The call rests on the fitted dose curve; in most records, active means well fitted inhibition curve with a large enough effect; inconclusive means small, poorly fitted or top-dose-only effect; inactive means flat fitted curve, though single readings scatter.
Possible outcomes: YES for active, NO for inactive

[
  {
    "molecule": "CCCN(CCC)C(=O)C(CCC(=O)O)NC(=O)c1ccccc1 (stereo unspecified)",
    "group_label": "NO"
  },
  {
    "molecule": "CN(C)CC/C=C1\\c2ccccc2COc2ccccc21",
    "group_label": "NO"
  },
  {
    "molecule": "NC(N)=NC(=O)Cc1c(Cl)cccc1Cl",
    "group_label": "NO"
  },
  {
    "molecule": "C[N+](C)(C)CCOC(N)=O",
    "group_label": "NO"
  },
  {
    "molecule": "OC(CCN1CCCCC1)(c1ccccc1)C1CCCCC1 (stereo unspecified)",
    "group_label": "NO"
  },
  {
    "molecule": "CN(C)C(=O)Oc1ccc[n+](C)c1",
    "group_label": "NO"
  },
  {
    "molecule": "CCCNC(C)C(=O)Nc1ccccc1C (stereo unspecified)",
    "group_label": "NO"
  },
  {
    "molecule": "CN1C[C@H](C(=O)N[C@]2(C)O[C@@]3(O)[C@@H]4CCCN4C(=O)[C@H](Cc4ccccc4)N3C2=O)C[C@@H]2c3cccc4[nH]cc(c34)C[C@H]21",
    "group_label": "NO"
  },
  {
    "molecule": "C#CCN(C)CCCOc1ccc(Cl)cc1Cl",
    "group_label": "NO"
  },
  {
    "molecule": "O=C(O)CP(=O)(O)O",
    "group_label": "NO"
  },
  {
    "molecule": "CNCCC(Oc1ccccc1OC)c1ccccc1 (stereo unspecified)",
    "group_label": "NO"
  },
  {
    "molecule": "C[N+](C)(C)CCOC(=O)CCC(=O)OCC[N+](C)(C)C",
    "group_label": "NO"
  },
  {
    "molecule": "Brc1c(NC2=NCCN2)ccc2nccnc12",
    "group_label": "NO"
  },
  {
    "molecule": "CCNC(=O)N1CCN(CCCC(c2ccc(F)cc2)c2ccc(F)cc2)CC1",
    "group_label": "NO"
  },
  {
    "molecule": "Cc1ccc(S(=O)(=O)NC(=O)NN2CCCCCC2)cc1",
    "group_label": "NO"
  },
  {
    "molecule": "CCN1CCC[C@H]1CNC(=O)c1c(O)c(Cl)cc(Cl)c1OC",
    "group_label": "NO"
  },
  {
    "molecule": "O=C(O)CN(CCOCCOCCN(CC(=O)O)CC(=O)O)CC(=O)O",
    "group_label": "NO"
  },
  {
    "molecule": "Nc1c2c(nc3ccccc13)CCCC2O (stereo unspecified)",
    "group_label": "NO"
  },
  {
    "molecule": "NC(=O)c1cn(Cc2c(F)cccc2F)nn1",
    "group_label": "NO"
  },
  {
    "molecule": "CC(C)(C)NCC(O)c1cc(O)cc(O)c1 (stereo unspecified)",
    "group_label": "NO"
  },
  {
    "molecule": "C(=C\\c1ccccc1)/CN1CCN(C(c2ccccc2)c2ccccc2)CC1",
    "group_label": "NO"
  },
  {
    "molecule": "Cc1scc2c1N(C(=O)CN1CCN(C)CC1)c1ccccc1NC2=O",
    "group_label": "NO"
  },
  {
    "molecule": "C[C@@H](O)[C@H]1C(=O)N2C(C(=O)O)=C(SCCN=CN)C[C@H]12",
    "group_label": "NO"
  },
  {
    "molecule": "C[n+]1cc2c3c(ccc2c2ccc4cc5c(cc4c21)OCO5)OCO3",
    "group_label": "YES"
  },
  {
    "molecule": "CCCOc1ccccc1-c1nc2n[nH]nc2c(=O)[nH]1",
    "group_label": "NO"
  },
  {
    "molecule": "CN1CCN(C2=Nc3ccccc3Oc3ccc(Cl)cc32)CC1",
    "group_label": "NO"
  },
  {
    "molecule": "Cc1nnc(SCC2=C(C(=O)O)N3C(=O)[C@@H](NC(=O)Cn4cnnn4)[C@H]3SC2)s1",
    "group_label": "NO"
  },
  {
    "molecule": "CN1CCN(CC(=O)N2c3ccccc3C(=O)Nc3cccnc32)CC1",
    "group_label": "NO"
  },
  {
    "molecule": "CN=C(NC#N)NCCSCc1nc[nH]c1C",
    "group_label": "NO"
  },
  {
    "molecule": "Cc1nc2sccn2c(=O)c1CCN1CCC(=C(c2ccc(F)cc2)c2ccc(F)cc2)CC1",
    "group_label": "YES"
  },
  {
    "molecule": "CC(=O)[C@]1(O)Cc2c(O)c3c(c(O)c2[C@@H](O[C@H]2C[C@H](N)[C@H](O)[C@H](C)O2)C1)C(=O)c1ccccc1C3=O",
    "group_label": "YES"
  }
]

Where do these numbers come from? They come from PubChem BioAssay (NCATS).
